- TEST METHOD NOTES: Cytotoxicity against human UO31 cells assessed as growth inhibition at 10 uM after 48 hrs by SRB assay
- Assay type: functional
- MEASUREMENT SETUP: UO-31, 48 h, read-out: GI

>  <CPD SMILES>
COc1cc2nc(SCC(=O)Nc3cc(OC)c(OC)c(OC)c3)n(-c3ccc(F)cc3)c(=O)c2cc1OC

>  <inhibition of growth at 10 µM [%]>
38

$$$$
>  <CPD SMILES>
COc1cc(NC(=O)CCSc2nc3ccccc3c(=O)n2-c2ccc(F)cc2)cc(OC)c1OC

>  <inhibition of growth at 10 µM [%]>
23

$$$$
>  <CPD SMILES>
COc1cc(NC(=O)CSc2nc3ccc(C)cc3c(=O)n2-c2ccccc2)cc(OC)c1OC

>  <inhibition of growth at 10 µM [%]>
49

$$$$
>  <CPD SMILES>
COc1cc(NC(=O)CSc2nc3ccc(Cl)cc3c(=O)n2-c2ccccc2)cc(OC)c1OC

>  <inhibition of growth at 10 µM [%]>
50

$$$$
>  <CPD SMILES>
COc1cc(NC(=O)CCSc2nc3ccc(Cl)cc3c(=O)n2-c2ccc(F)cc2)cc(OC)c1OC

>  <inhibition of growth at 10 µM [%]>
51

$$$$
>  <CPD SMILES>
COc1cc(NC(=O)CCSc2nc3ccccc3c(=O)n2-c2ccccc2)cc(OC)c1OC

>  <inhibition of growth at 10 µM [%]>
44

$$$$
>  <CPD SMILES>
COc1cc2nc(SCCC(=O)Nc3cc(OC)c(OC)c(OC)c3)n(-c3ccccc3)c(=O)c2cc1OC

>  <inhibition of growth at 10 µM [%]>
25

$$$$
>  <CPD SMILES>
COc1cc(NC(=O)CSc2nc3ccccc3c(=O)n2-c2ccccc2)cc(OC)c1OC

>  <inhibition of growth at 10 µM [%]>
48

$$$$
>  <CPD SMILES>
COc1cc2nc(SCC(=O)Nc3cc(OC)c(OC)c(OC)c3)n(-c3ccccc3)c(=O)c2cc1OC

>  <inhibition of growth at 10 µM [%]>
34

$$$$
